system: HCT-15 colon; experiment: NCI tumour cell line growth inhibition, 48 h; in the data active means GI50 below about 0.43 µM; inactive means the rest
Labels: active, inactive

Molecule	Assigned Category
O=[N+]([O-])c1cc(Cl)c(Cl)c([N+](=O)[O-])c1Cl	inactive
O=C(/C=C/c1ccc(F)cc1)c1ccc(Cl)cc1Cl	inactive
CC(C)c1ccc(C(=O)Nc2nc3ccc(O)cc3s2)cc1	active
CCN(CC)CC(O)CNc1ccc(NCC2CO2)c2c1C(=O)c1ccccc1C2=O (configuration not stated)	active
COc1cc(/C=C/C(=O)CC(=O)/C=C/c2cc(OC)c(OC)c(OC)c2)cc(OC)c1OC	inactive
COc1ccc(/C=N\NC(=O)CN2CCN(c3cc4c(cc3F)c(=O)c(C(=O)N/N=C/c3ccc(OC)c(OC)c3)cn4C3CC3)CC2)cc1OC	inactive
CC(C)(C#N)c1cc(Cn2cncn2)cc(C(C)(C)C#N)c1	inactive
ClCc1cccc(Cn2cnc3c(NC45CC6CC(CC(C6)C4)C5)ncnc32)c1	inactive
Cc1cc(C)c([O-])c(CN(C)CCN(C)Cc2cc(C)cc(C)c2[O-])c1.O=C([O-])c1cccc(C(=O)[O-])n1.[Ti+4]	inactive
CC(=O)[O-].CC(=O)[O-].[Pt+2].c1cscn1.c1cscn1	inactive
COc1cc2c(cc1OCCCOc1cc3c(cc1OC)C(=O)N1C[C@H](F)C[C@H]1C=N3)N=C[C@@H]1C[C@@H](F)CN1C2=O	inactive
CCOC(=O)C(Cc1c[nH]c2ccc(N)cc12)(NC(C)=O)C(=O)OCC	inactive
